Every entry's value here was drawn from paper PMC4629079.

# System: B/Jifang/13/97
# Measurement Description: Anti-influenza B CPE assay
# Assay type: cell-based
# Test Conditions: Influenza B virus
Readout Type: IC50

See these solved cases before continuing.
Molecule	IC50
CCOC(=O)C1=C[C@@H](OC(CC)CC)[C@H](NC(C)=O)[C@@H](N)C1 [Oseltamivir, oseltamivir, reference compound]	115 µM
COC(=O)c1cc2c(OCC(C)C)cc(NC(C)=O)cc2[nH]1	> 8.13 µM
COC(=O)c1cc2ccc(N(C)C)cc2[nH]1 [Compound 15e]	> 102 µM
NC(=O)c1ncn([C@@H]2O[C@H](CO)[C@@H](O)[C@H]2O)n1 [RBV, ribavirin, reference compound]	10.1 µM
COC(=O)c1cc2ccc(N)cc2[nH]1 [Compound 14f, Methyl 6-amino-1H-indole-2-carboxylate]	13 µM

In: Answer with the recorded IC50 of COC(=O)c1cc2c(OC(C)C)cc(N)cc2[nH]1 [Compound 10f] only.
Out: > 89.6 µM

In: Answer with the recorded IC50 of COC(=O)c1cc2c(OC)cc(N)cc2[nH]1 only.
Out: > 33.7 µM

In: Answer with the recorded IC50 of C=CCOc1cc(N)cc2[nH]c(C(=O)OC)cc12 only.
Out: > 30.1 µM

In: Answer with the recorded IC50 of COC(=O)c1cc2c(OCC(C)C)cc(N)cc2[nH]1 only.
Out: > 9.43 µM

In: Answer with the recorded IC50 of COC(=O)c1cc2c(OCc3ccccc3)cccc2[nH]1 [Compound 13e] only.
Out: > 26.4 µM

In: Answer with the recorded IC50 of COC(=O)c1cc2c(OCc3ccccc3)cc(OC)cc2[nH]1 [Compound 12e] only.
Out: > 23.8 µM

In: Answer with the recorded IC50 of COC(=O)c1cc2c(OC)cccc2[nH]1 [Compound 11e, Methyl 4-methoxy-1H-indole-2-carboxylate] only.
Out: > 108 µM

In: Answer with the recorded IC50 of CCOc1cc(N)cc2[nH]c(C(=O)OC)cc12 only.
Out: > 31.7 µM

In: Answer with the recorded IC50 of COC(=O)c1cc2ccc(NC(C)=O)cc2[nH]1 [Compound 14e] only.
Out: > 95.8 µM

###

# Tested on: A/FM/1/47
# Measurement Description: Anti-influenza A CPE inhibitory assay in MDCK cells
# Assay type: cell-based, influenza A/FM/1/47(H1N1)
# Test Conditions: Influenza A virus, MDCK, […]; CPE, Reed and Muench
# key: entry, value: IC50
# number only, unit µM dropped from output

In: Please look at COC(=O)c1cc2c(OCC(C)C)cc(NC(C)=O)cc2[nH]1 and tell me its recorded IC50 on A/FM/1/47.
Out: 8.13

In: Please look at CCOc1cc(N)cc2[nH]c(C(=O)OC)cc12 and tell me its recorded IC50 on A/FM/1/47.
Out: 18.3

In: Please look at COC(=O)c1cc2ccc(N)cc2[nH]1 [Compound 14f, Methyl 6-amino-1H-indole-2-carboxylate] and tell me its recorded IC50 on A/FM/1/47.
Out: 7.53

In: Please look at NC(=O)c1ncn([C@@H]2O[C@H](CO)[C@@H](O)[C@H]2O)n1 [RBV, ribavirin, reference compound] and tell me its recorded IC50 on A/FM/1/47.
Out: 2.58

###

# System: A/FM/1/47
# Measurement Description: Anti-influenza A CPE inhibitory assay in MDCK cells
# Assay type: cell-based, influenza A/FM/1/47(H1N1)
# Test Conditions: Influenza A virus, MDCK, […]; CPE, Reed and Muench
pIC50: −log10 of the molar value.
# key: entry, value: pIC50

See these solved cases before continuing.
Compound	Readout Type	Recorded Measurement
COC(=O)c1cc2ccc(N(C)C)cc2[nH]1 [Compound 15e]	pIC50	3.99
COC(=O)c1cc2c(OCc3ccccc3)cc(N)cc2[nH]1	pIC50	< 4.60
COC(=O)c1cc2c(OCc3ccccc3)cccc2[nH]1 [Compound 13e]	pIC50	> 4.28
CCCOc1ccc(N)c2[nH]c(C(=O)OC)cc12 [Compound 18f]	pIC50	< 5.48
COC(=O)c1cc2c(OCC(C)C)cc(N)cc2[nH]1	pIC50	5.03

In: Answer with the recorded pIC50 of COC(=O)c1cc2c(OCc3ccc(F)cc3)cc(N)cc2[nH]1 only.
Out: < 4.15

In: Answer with the recorded pIC50 of COC(=O)c1cc2ccc(NC(C)=O)cc2[nH]1 [Compound 14e] only.
Out: 4.02

In: Answer with the recorded pIC50 of CCOC(=O)C1=C[C@@H](OC(CC)CC)[C@H](NC(C)=O)[C@@H](N)C1 [Oseltamivir, oseltamivir, reference compound] only.
Out: 5.19

###

# Tested on: A/FM/1/47
# Measurement Description: Anti-influenza A CPE inhibitory assay in MDCK cells
# Format: cell-based, influenza A/FM/1/47(H1N1)
# Test Conditions: Influenza A virus, MDCK, […]; CPE, Reed and Muench
Readout Type: IC50

See these solved cases before continuing.
Compound	Recorded Measurement
COC(=O)c1cc2c(OC)cc(N)cc2[nH]1	< 52 µM
COC(=O)c1cc2c(OCC3CCCCC3)cc(N)cc2[nH]1	> 8.15 µM
COC(=O)c1cc2c(OC3CC3)cc(N)cc2[nH]1	> 85.5 µM
COC(=O)c1cc2c(OC)ccc(N)c2[nH]1 [Compound 16f]	> 3.73 µM

In: Answer with the recorded IC50 of COC(=O)c1cc2c(OCc3ccc(OC)cc3)cc(N)cc2[nH]1 only.
Out: > 205 µM

###

# key: entry, value: pIC50
# Test system: A/FM/1/47
# Measurement Description: Anti-influenza A CPE inhibitory assay in MDCK cells
# Assay type: cell-based, influenza A/FM/1/47(H1N1)
# Test Conditions: Influenza A virus, MDCK, […]; CPE, Reed and Muench
pIC50: −log10 of the molar value.

See these solved cases before continuing.
Molecule	Recorded Measurement
C=CCOc1cc(N)cc2[nH]c(C(=O)OC)cc12	> 4.28
COC(=O)c1cc2c(OC)cccc2[nH]1 [Compound 11e, Methyl 4-methoxy-1H-indole-2-carboxylate]	4.20
COC(=O)c1cc2c(OCc3ccccc3)cc(NC(C)=O)cc2[nH]1	< 4.18
COC(=O)c1cc2c(OC(C)C)cc(N)cc2[nH]1 [Compound 10f]	> 4.28

In: Answer with the recorded pIC50 of CCOc1ccc(N)c2[nH]c(C(=O)OC)cc12 [Compound 17f] only.
Out: < 4.98
